target: Mitogen-activated protein kinase 8 (Homo sapiens); assay: Inhibition of FLAG-tagged JNK-1 (unknown origin) transfected in African green monkey COS cells by SDS-PAGE analysis
Sequence (P45983 whole entry): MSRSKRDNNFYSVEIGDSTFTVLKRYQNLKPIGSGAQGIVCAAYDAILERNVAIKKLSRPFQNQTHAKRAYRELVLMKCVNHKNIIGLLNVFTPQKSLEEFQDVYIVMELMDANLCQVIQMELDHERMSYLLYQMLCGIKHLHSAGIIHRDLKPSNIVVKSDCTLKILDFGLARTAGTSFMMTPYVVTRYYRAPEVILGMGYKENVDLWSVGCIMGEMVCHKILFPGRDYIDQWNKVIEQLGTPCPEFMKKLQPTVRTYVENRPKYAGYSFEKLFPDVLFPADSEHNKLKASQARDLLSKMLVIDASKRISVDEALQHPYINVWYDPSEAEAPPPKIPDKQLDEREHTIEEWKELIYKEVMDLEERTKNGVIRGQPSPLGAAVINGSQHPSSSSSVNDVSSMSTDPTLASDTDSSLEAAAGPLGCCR
pIC50: −log10 of the molar value.
readout kind: pIC50

The following compounds have reported results that may help.
>>> test_result("COc1ccc(NC(=O)c2cc(-c3ccccc3)[nH]n2)cc1")
5.09
>>> test_result("COc1ccc(-c2cc(NC(=O)c3cc(-c4ccccc4)[nH]n3)no2)cc1")
5.49
>>> test_result("COc1ccc(CNC(=O)c2cc(-c3ccccc3)[nH]n2)cc1OC")
5.24
>>> test_result("O=C(NCc1ccccc1)c1cc(-c2ccccc2)[nH]n1")
5.04
>>> test_result("CC(=O)c1cccc(NC(=O)c2cc(-c3ccccc3)[nH]n2)c1")
5.16
>>> test_result("O=C(Nc1ccc2[nH]c(S)nc2c1)c1cc(-c2ccccc2)[nH]n1")
5.54
>>> test_result("O=C(Nc1ccccn1)c1cc(-c2ccccc2)[nH]n1")
5.05
>>> test_result("O=C(Nc1ccccc1)c1cc(-c2ccccc2)[nH]n1")
5.02

[1] O=C(Nc1ccc([N+](=O)[O-])cc1)c1cc(-c2ccccc2)[nH]n1
[2] O=C(NCc1ccc(Cl)c(Cl)c1)c1cc(-c2ccccc2)[nH]n1
[3] O=C(Nc1ccc(Cl)c(F)c1)c1cc(-c2ccccc2)[nH]n1
Please produce an ascending ranking of these compounds based on pIC50. Return value: ordered labels per request.
1, 2, 3

----------
test system: Rattus norvegicus; assay: Antiinflammatory activity in po dosed rat paw edema model assessed as inhibition of carrageenan-induced paw edema administered 1 hr prior to carrageenan challenge measured after 4 hrs
readout kind: inhibition (INH) (%)
Reply numerically in %, unit not repeated.

See these solved cases before continuing.
>>> test_result("O=C(Nc1ccc(Cl)c(F)c1)c1cc(-c2ccccc2)[nH]n1")
64.22
>>> test_result("CC(C)(C)c1cc(NC(=O)c2cc(-c3ccccc3)[nH]n2)no1")
41.7
>>> test_result("O=C(Nc1cc(Cl)ccc1Cl)c1cc(-c2ccccc2)[nH]n1")
18.9

Find the measured inhibition (INH): item O=C(Nc1ccccc1)c1cc(-c2ccccc2)[nH]n1 , target or system Rattus norvegicus.
30.58

Return inhibition (INH) measured with Rattus norvegicus given this compound: COc1ccc(NC(=O)c2cc(-c3ccccc3)[nH]n2)cc1
66.44

Requested read-out inhibition (INH), target or system Rattus norvegicus, entry COc1ccc(-c2cc(NC(=O)c3cc(-c4ccccc4)[nH]n3)no2)cc1
71.66

Param readout = inhibition (INH); param system = Rattus norvegicus; param query = CC(=O)c1cccc(NC(=O)c2cc(-c3ccccc3)[nH]n2)c1 ; response: value
56.8

----------
system: Rattus norvegicus; assay: Antiinflammatory activity in po dosed rat paw edema model assessed as inhibition of carrageenan-induced paw edema administered 1 hr prior to carrageenan challenge measured after 4 hrs
In this section, each of the compounds is paired with its reported inhibition (INH).
Write the number in % without appending the unit.

Completed entries (count: 5):
>>> test_result("O=C(NCc1ccco1)c1cc(-c2ccccc2)[nH]n1")
66.33
>>> test_result("O=C(Nc1ccc([N+](=O)[O-])cc1)c1cc(-c2ccccc2)[nH]n1")
68.7
>>> test_result("O=C(NC1CC1)c1cc(-c2ccccc2)[nH]n1")
55.87
>>> test_result("COc1ccc(CNC(=O)c2cc(-c3ccccc3)[nH]n2)cc1")
16.46
>>> test_result("O=C(Nc1ccc2[nH]c(S)nc2c1)c1cc(-c2ccccc2)[nH]n1")
74.15

Which inhibition (INH) value is on record for O=C(NCc1ccc(Cl)c(Cl)c1)c1cc(-c2ccccc2)[nH]n1 ?
10.11

Param item = COc1ccc(CNC(=O)c2cc(-c3ccccc3)[nH]n2)cc1OC ; retrieve measured inhibition (INH).
24.8

What value of inhibition (INH) has been recorded for this entry: O=C(Nc1ccccn1)c1cc(-c2ccccc2)[nH]n1
64.26

Item O=C(Nc1ccc(Br)cc1)c1cc(-c2ccccc2)[nH]n1 has what recorded inhibition (INH)?
38.22

What does the data say about its inhibition (INH)? Entry: O=C(NCc1ccccc1)c1cc(-c2ccccc2)[nH]n1
25.66

For the compound shown here, O=C(NCc1ccc(F)cc1)c1cc(-c2ccccc2)[nH]n1 , give the reported inhibition (INH).
54.66

----------
target: Mitogen-activated protein kinase 8 (Homo sapiens); assay: Inhibition of FLAG-tagged JNK-1 (unknown origin) transfected in African green monkey COS cells by SDS-PAGE analysis
pIC50: −log10 of the molar value.
readout kind: pIC50

Some solved entries appear below for comparison.
>>> test_result("O=C(NCc1ccco1)c1cc(-c2ccccc2)[nH]n1")
5.55
>>> test_result("O=C(Nc1nccs1)c1cc(-c2ccccc2)[nH]n1")
5.17
>>> test_result("Cc1cc(C)c(NC(=O)c2cc(-c3ccccc3)[nH]n2)c(C)c1")
4.92
>>> test_result("O=C(Nc1ccc(Br)cc1)c1cc(-c2ccccc2)[nH]n1")
5.23
>>> test_result("O=C(NC1CC1)c1cc(-c2ccccc2)[nH]n1")
5.21

[a] COc1ccc(CNC(=O)c2cc(-c3ccccc3)[nH]n2)cc1
[b] O=C(NCc1ccc(F)cc1)c1cc(-c2ccccc2)[nH]n1
Compare the recorded pIC50 of a and b ; state which is larger. Please identify the chosen entry by its label.
b
(b: 5.54, a: 5.21)

----------
tested on: Rattus norvegicus; assay: Antiinflammatory activity in po dosed rat paw edema model assessed as inhibition of carrageenan-induced paw edema administered 1 hr prior to carrageenan challenge measured after 4 hrs
The entries below come with measured inhibition (INH) values attached.
# number only, unit % dropped from output

>>> test_result("O=C(Nc1ccc(O)cc1)c1cc(-c2ccccc2)[nH]n1")
16.64
>>> test_result("O=C(Nc1nccs1)c1cc(-c2ccccc2)[nH]n1")
31.4

Look up inhibition (INH): Cc1cc(C)c(NC(=O)c2cc(-c3ccccc3)[nH]n2)c(C)c1
26.8
